Target: T1, PUF4 RNA-binding domain (Saccharomyces cerevisiae, UniProt P25339 537-888)
T1 sequence: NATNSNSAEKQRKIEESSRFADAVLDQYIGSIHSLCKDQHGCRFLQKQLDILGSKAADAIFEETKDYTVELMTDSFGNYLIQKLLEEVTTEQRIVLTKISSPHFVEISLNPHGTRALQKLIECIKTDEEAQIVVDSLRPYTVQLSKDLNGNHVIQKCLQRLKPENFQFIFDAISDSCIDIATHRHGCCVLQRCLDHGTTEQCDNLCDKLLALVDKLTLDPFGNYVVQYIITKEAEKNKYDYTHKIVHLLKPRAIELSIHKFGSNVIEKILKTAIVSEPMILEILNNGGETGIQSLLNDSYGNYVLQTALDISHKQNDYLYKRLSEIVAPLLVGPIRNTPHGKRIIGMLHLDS
Experiment: Mg; RNA-MaP; 20 mM Na-HEPES pH 7.4, 30 mM KOAc, 0.75 mM MgCl2, 0.1% Tween-20, 5% glycerol, 0.1 mg/mL BSA, 2 mM DTT; 25 C; 0.0125-409.6 nM protein
Details: tags: N-His6-TEV cleaved; C-SNAP kept, Cy3B-labelled; label: tethered on chip by stalled RNA polymerase
pKd: −log10 of the molar value.
Use pKd to assign classes; range list: low = under 6, moderate = from 6 up to 8, high = 8 and over

- Binder: "Ib_S4_P4E.1_K4.1_C4.1_H4.1_[G2C]_[T3C]_A4.1_F4.1_T4.1 (ssRNA) RNA: UUUGACAACUGAUCGUUCUUUCUUCCAUAUUAUUCUUUCUCGAUCAGUUGUCUUU"
  Qualitative label: "low"
- Binder: "Ie_S2_P5E.1_K5.1_C5.1_H5.1_A5.1_F5.1_[+10T]_T5.1 (ssRNA) RNA: UUUGAUUAAUAUGAUAUCGUUCUUUCUUGUAUUAUUAUUUCUUUCUCGAUAUCAUAUUAAUCUUU"
  Qualitative label: "high"
- Binder: "Ie_S4_P5E.1_K5.1_C5.1_H5.1_[+3TCTC]_A5.1_F5.1_T5.1 (ssRNA) RNA: UUUGACAACUGAUCGUUCUUUCUUGUUCUCAUUAUUAUUCUUUCUCGAUCAGUUGUCUUU"
  Qualitative label: "moderate"
- Binder: "UCUCUUUGUAUCGGCUCUCUU (ssRNA) [Ic_S1_P4E.1_K4.1_C4.1_H4.1_A4.1_[A6C]_[T7G]_F4.1_[T8G]_[A9C]_T4.1]"
  Qualitative label: "low"
- Binder: "UCUCUUUUUAUAGUAUCUCUU (ssRNA) [Ib_S1_P4E.1_K4.1_C4.1_H4.1_[G2T]_A4.1_[T7G]_F4.1_T4.1]"
  Qualitative label: "low"
- Binder: "Id_ii_S2_P3E.3_K3.2_C3.2_[C-2A]_[T-1C]_H3.2_A3.1_F3.1_T3.2_[T9C]_[A10C] (ssRNA) RNA: UUUGAUUAAUAUGAUAUCGUUCUUUCUACUAUAUAUACCUUCUUUCUCGAUAUCAUAUUAAUCUUU"
  Qualitative label: "moderate"
- Binder: "UCUCUUCGUGUAUAUUAGGUCUCUU (ssRNA) [Id_ii_S1_P4E.2_K4.1_C4.2_[T-1G]_H4.1_A4.1_F4.1_T4.2_[T11G]]"
  Qualitative label: "high"
- Binder: "UCUCUUUGUGUAUAUUAAUUCUCUU (ssRNA) [Id_ii_S1_P4E.2_K4.1_C4.2_[C-2T]_[T-1G]_H4.1_A4.1_F4.1_T4.2_[G10A]]"
  Qualitative label: "high"
- Binder: "Ic_S2_P4E.1_K4.1_C4.1_H4.1_A4.1_[T5A]_[A6T]_F4.1_[A9C]_T4.1 (ssRNA) RNA: UUUGAUUAAUAUGAUAUCGUUCUUUCUUGUAAUUUCUUCUUUCUCGAUAUCAUAUUAAUCUUU"
  Qualitative label: "moderate"
